Target: BRAF^V600E (Homo sapiens, UniProt P15056, V600E)
Sequence (P15056 whole entry V600E): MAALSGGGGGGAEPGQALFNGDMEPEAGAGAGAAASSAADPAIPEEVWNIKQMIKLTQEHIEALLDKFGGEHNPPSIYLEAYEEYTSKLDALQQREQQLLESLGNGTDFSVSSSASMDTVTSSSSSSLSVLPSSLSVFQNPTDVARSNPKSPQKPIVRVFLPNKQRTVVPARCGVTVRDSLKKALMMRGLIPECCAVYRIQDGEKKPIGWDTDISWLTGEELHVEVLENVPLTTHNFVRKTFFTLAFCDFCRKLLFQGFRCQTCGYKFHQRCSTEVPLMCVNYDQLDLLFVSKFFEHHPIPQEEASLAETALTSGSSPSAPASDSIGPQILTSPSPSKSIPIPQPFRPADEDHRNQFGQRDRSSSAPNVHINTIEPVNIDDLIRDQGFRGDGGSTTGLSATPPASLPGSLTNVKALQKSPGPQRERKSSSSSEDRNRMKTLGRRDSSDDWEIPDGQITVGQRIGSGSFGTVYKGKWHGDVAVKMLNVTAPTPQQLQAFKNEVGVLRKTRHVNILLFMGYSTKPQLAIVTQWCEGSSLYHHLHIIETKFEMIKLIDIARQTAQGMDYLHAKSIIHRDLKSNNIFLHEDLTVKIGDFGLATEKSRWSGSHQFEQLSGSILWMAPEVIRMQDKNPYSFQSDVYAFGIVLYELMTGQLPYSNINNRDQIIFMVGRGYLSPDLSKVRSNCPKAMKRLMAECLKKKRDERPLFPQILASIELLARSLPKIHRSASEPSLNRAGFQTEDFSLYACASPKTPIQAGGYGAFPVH
Experiment: BRAF V600E enzymatic activity, FRET-based Z'-Lyte kinase assay
experimental.readout: IC50 (nM)

Look over these answered cases.
O=C(CCCCCCNc1nccc(-c2sc(C3CC3)nc2-c2cccc(NS(=O)(=O)c3c(F)cccc3F)c2F)n1)NO [14h] : 1.31
O=C(CCCCCCNc1nccc(-c2sc(-c3ccccc3)nc2-c2cccc(NS(=O)(=O)c3c(F)cccc3F)c2F)n1)NO [14j] : 5.14
CCc1nc(-c2cccc(NS(=O)(=O)c3c(F)cccc3F)c2F)c(-c2ccnc(NCCCCCCC(=O)NO)n2)s1 [14f] : 1.66
CC(C)(C)c1nc(-c2cccc(NS(=O)(=O)c3c(F)cccc3F)c2F)c(-c2ccnc(NCCCCCCCCC(=O)NO)n2)s1 [14d] : 3.82
CCCc1nc(-c2cccc(NS(=O)(=O)c3c(F)cccc3F)c2F)c(-c2ccnc(NCCCCCCC(=O)NO)n2)s1 [14i] : 1.07

a: CC(C)(C)c1nc(-c2cccc(NS(=O)(=O)c3ccccc3)c2F)c(-c2ccnc(NCCCCCCC(=O)NO)n2)s1 [21c]
b: Cc1nc(-c2cccc(NS(=O)(=O)c3ccccc3)c2F)c(-c2ccnc(NCCCCCCC(=O)NO)n2)s1 [21f]
IN: # returns the entry with the larger IC50; inputs a and b # reply format: chosen label
OUT: b
(b: 3.92 nM, a: 1.26 nM)

====

Biological target: HDAC6 (Homo sapiens, UniProt Q9UBN7)
Construct: purchased BPS Bioscience
Sequence (Q9UBN7 whole entry): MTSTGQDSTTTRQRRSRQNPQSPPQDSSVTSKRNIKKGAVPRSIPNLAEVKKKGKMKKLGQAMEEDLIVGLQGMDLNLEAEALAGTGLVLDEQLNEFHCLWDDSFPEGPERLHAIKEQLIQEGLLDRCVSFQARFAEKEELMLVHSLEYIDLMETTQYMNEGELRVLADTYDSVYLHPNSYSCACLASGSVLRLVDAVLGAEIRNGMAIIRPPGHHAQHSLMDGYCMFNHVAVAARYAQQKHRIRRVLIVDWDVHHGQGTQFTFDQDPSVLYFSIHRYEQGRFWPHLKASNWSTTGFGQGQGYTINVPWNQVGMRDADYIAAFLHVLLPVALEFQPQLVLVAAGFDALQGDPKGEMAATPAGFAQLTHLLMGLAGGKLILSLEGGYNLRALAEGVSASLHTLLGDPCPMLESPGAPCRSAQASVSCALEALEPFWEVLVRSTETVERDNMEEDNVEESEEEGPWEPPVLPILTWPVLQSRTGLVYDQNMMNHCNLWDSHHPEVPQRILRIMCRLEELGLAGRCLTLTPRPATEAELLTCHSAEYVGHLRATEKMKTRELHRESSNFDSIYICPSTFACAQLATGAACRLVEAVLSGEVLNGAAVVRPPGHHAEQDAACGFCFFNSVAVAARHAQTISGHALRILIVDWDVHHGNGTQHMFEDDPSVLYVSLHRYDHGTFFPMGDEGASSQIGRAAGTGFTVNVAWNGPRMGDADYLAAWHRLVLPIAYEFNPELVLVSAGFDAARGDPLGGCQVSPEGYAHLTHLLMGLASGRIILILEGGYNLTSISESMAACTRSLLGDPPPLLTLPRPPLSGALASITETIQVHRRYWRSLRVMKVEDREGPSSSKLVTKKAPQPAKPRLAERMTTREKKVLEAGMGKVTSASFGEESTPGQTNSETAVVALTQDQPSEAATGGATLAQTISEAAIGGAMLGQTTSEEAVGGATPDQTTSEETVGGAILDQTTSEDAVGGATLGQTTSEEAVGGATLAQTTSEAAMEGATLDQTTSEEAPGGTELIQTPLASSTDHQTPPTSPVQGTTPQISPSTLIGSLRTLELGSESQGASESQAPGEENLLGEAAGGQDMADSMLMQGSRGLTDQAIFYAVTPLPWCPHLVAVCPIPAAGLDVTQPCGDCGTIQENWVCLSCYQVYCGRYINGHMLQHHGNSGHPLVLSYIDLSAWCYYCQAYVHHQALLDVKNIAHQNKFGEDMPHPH
Test: HDAC6 fluorescent-based enzymatic activity assay
Type: biochemical
Settings: Table 1; read-out: Enzymatic IC50 HDAC6
pIC50: −log10 of the molar value.
experimental.readout: pIC50

CCS(=O)(=O)Nc1cccc(-c2nc(C)sc2-c2ccnc(NCCCCCCC(=O)NO)n2)c1F [21e] : 7.73
CC(C)(C)c1nc(-c2cccc(NS(=O)(=O)c3c(F)cccc3F)c2F)c(-c2ccnc(NCCCCCCC(=O)NO)n2)s1 [14b] : 7.31
Cc1nc(-c2cccc(NS(=O)(=O)c3c(F)cccc3F)c2F)c(-c2ccnc(NCCCCCCC(=O)NO)n2)s1 [14e] : 7.84
CCCS(=O)(=O)Nc1cccc(-c2nc(C(C)(C)C)sc2-c2ccnc(NCCCCCCC(=O)NO)n2)c1F [21b] : 7.14
CC(C)(C)c1nc(-c2cccc(NS(C)(=O)=O)c2F)c(-c2ccnc(NCCCCCCC(=O)NO)n2)s1 [21a] : 7.65
O=C(CCCCCCNc1nccc(-c2sc(C3CC3)nc2-c2cccc(NS(=O)(=O)c3c(F)cccc3F)c2F)n1)NO [14h] : 7.57

a: CC(C)(C)c1nc(-c2cccc(NS(=O)(=O)c3c(F)cccc3F)c2F)c(-c2ccnc(NCCCCCCCCC(=O)NO)n2)s1 [14d]
b: CC(C)(C)c1nc(-c2cccc(NS(=O)(=O)c3c(F)cccc3F)c2F)c(-c2ccnc(NCCCCCCCC(=O)NO)n2)s1 [14c]
IN: Which is greater in pIC50, the first item a or the second item b ? Answer by quoting the chosen item's label.
OUT: b
(b: 6.89, a: 6.49)

a: CCc1nc(-c2cccc(NS(=O)(=O)c3c(F)cccc3F)c2F)c(-c2ccnc(NCCCCCCC(=O)NO)n2)s1 [14f]
b: CC(C)(C)c1nc(-c2cccc(NS(=O)(=O)c3c(F)cccc3F)c2F)c(-c2ccnc(NCCCCCC(=O)NO)n2)s1 [14a]
IN: Hi there, can you help? I need to know whether a or b has lower measured pIC50. Kindly give the label for the entry you pick.
OUT: b

a: CCCc1nc(-c2cccc(NS(=O)(=O)c3c(F)cccc3F)c2F)c(-c2ccnc(NCCCCCCC(=O)NO)n2)s1 [14i]
b: Cc1nc(-c2cccc(NS(=O)(=O)c3ccccc3)c2F)c(-c2ccnc(NCCCCCCC(=O)NO)n2)s1 [21f]
IN: Pick one: a or b . Which has the bigger pIC50 number? Could you answer with the label of the item you picked?
OUT: b
(b: 7.73, a: 7.19)

I: O=C(CCCCCCNc1nccc(-c2sc(-c3ccccc3)nc2-c2cccc(NS(=O)(=O)c3c(F)cccc3F)c2F)n1)NO [14j]
II: CC(C)c1nc(-c2cccc(NS(=O)(=O)c3c(F)cccc3F)c2F)c(-c2ccnc(NCCCCCCC(=O)NO)n2)s1 [14g]
IN: Compare pIC50: is it lower for I or for II ? Returns: label corresponding to the selected item.
OUT: I
(I: 6.85, II: 7.52)

1: CC(C)(C)c1nc(-c2cccc(NS(=O)(=O)c3ccccc3)c2F)c(-c2ccnc(NCCCCCCC(=O)NO)n2)s1 [21c]
2: Cc1nc(-c2cccc(NS(C)(=O)=O)c2F)c(-c2ccnc(NCCCCCCC(=O)NO)n2)s1 [21d]
IN: Please indicate which has the smaller reported pIC50: 1 , or 2 . Refer to your chosen entry by its label in the reply.
OUT: 1
